Measured Leakage Light spot number accompanies every entry in the list below.
test system: choroidal neovascularization; test: Choroidal neovascularization in rats (laser photocoagulation, FFA); assay type: in vivo; details: day 7 after administration, total light spot number was 186, 0.05 μM in the vitreous chamber once a day for 1 week, BN rats
Peptide text beside a SMILES is read from it. * marks the point of attachment. X84 = O=C1C=CC(=O)N1c1ccccc1CCCCCCCCCCCCC(=O)*; X72 = O=C1C=CC(=O)N1c1ccccc1CCCCCCCCCCC(=O)*; X79 = O=C1C=CC(=O)N1c1cccc(CCC(=O)*)c1
quantity measured: Leakage Light spot number

| compound | quantity measured | value observed |
| --- | --- | --- |
| C[C@H](NC(=O)CNC(=O)[C@H](CCCNC(=N)N)NC(=O)CCCCCCCCCCc1ccccc1N1C(=O)C=CC1=O)C(=O)N[C@@H](CC(=O)O)C(=O)N[C@@H](CCCNC(=N)N)C(=O)N[C@@H](C)C(=O)NCC(=O)NCC(=O)NCC(=O)NCC(=O)N[C@@H](CCCNC(=N)N)C(=O)NCC(=O)N[C@@H](CC(=O)O)C(=O)O [X22] (X72-RGADRAGGGGRGD-OH) | Leakage Light spot number | 89 |
| C[C@H](NC(=O)CNC(=O)[C@H](CCCNC(=N)N)NC(=O)CCCCCCCCCCCCc1ccccc1N1C(=O)C=CC1=O)C(=O)N[C@@H](CC(=O)O)C(=O)N[C@@H](CCCNC(=N)N)C(=O)N[C@@H](C)C(=O)NCC(=O)NCC(=O)NCC(=O)NCC(=O)N[C@@H](CCCNC(=N)N)C(=O)NCC(=O)N[C@@H](CC(=O)O)C(=O)O [X24] (X84-RGADRAGGGGRGD-OH) | Leakage Light spot number | 92 |
| C[C@H](NC(=O)CNC(=O)[C@H](CCCNC(=N)N)NC(=O)CCc1cccc(N2C(=O)C=CC2=O)c1)C(=O)N[C@@H](CC(=O)O)C(=O)N[C@@H](CCCNC(=N)N)C(=O)N[C@@H](C)C(=O)NCC(=O)NCC(=O)NCC(=O)NCC(=O)N[C@@H](CCCNC(=N)N)C(=O)NCC(=O)N[C@@H](CC(=O)O)C(=O)O [X26] (X79-RGADRAGGGGRGD-OH) | Leakage Light spot number | 92 |
